All values here come from paper PMC10397247.

Biological target: T1, 4H1831-bN
T1 chain: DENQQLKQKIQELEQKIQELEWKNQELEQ
Test: two-hybrid library CCNG1;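 also: natural log of median RNA to DNA barcode read ratio; higher means stronger binding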
observable: interaction score

* DEIQQLEQENQELEQKIQELKWEIQELKQ [4H170-bN] | -1.26
* DENQQLEQENQELEQEIQELEWKIQELKQ [4H1158-bN] | -0.553
* DEIQQLEQEIQELKQKIQELKWKNQELKQ [4H112-bN] | 0.348

1 = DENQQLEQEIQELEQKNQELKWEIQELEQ [4H1081-bN]
2 = DEIQQLEQEIQELKQKNQELEWKIQELKQ [4H118-bN]
[Q] Please choose the item with the lower interaction score value from this pair: 1 and 2 Please indicate the selected item by its label.
[A] 1
(1: -0.661, 2: -0.392)
